- TESTED_TARGET: protein-protein interaction between Kras and SOS1 (biotin-tagged human Kras loaded with GDP, His-tagged human SOS1) (Homo sapiens (Human), UniProt P01116, G12D)
- PROCEDURE_SUMMARY: Protein-protein interaction inhibition between Kras and SOS1 (KrasG12D-SOS PPI) using AlphaScreen
- Assay type: biochemical
- ASSAY_CONDITIONS: AlphaScreen; biotin-tagged human Kras loaded with GDP, His-tagged human SOS1; read-out: KRAS G12D-SOS PPI IC50
pIC50: −log10 of the molar value. Bridge positions count the residues as written; N and C are the ends. Square brackets hold non-standard residues; d marks the D form. Peptide text beside a SMILES is read from it. * marks the point of attachment. hPhe(3-Cl-4-CF3) = N[C@@H](CCc1ccc(C(F)(F)F)c(Cl)c1)C(=O)O; NMehPhe = CN[C@@H](CCc1ccccc1)C(=O)O; NMeCha = CN[C@@H](CC1CCCCC1)C(=O)O; NMeD = CN[C@@H](CC(=O)O)C(=O)O; NMeV = CN[C@H](C(=O)O)C(C)C; NMeAbu = CC[C@H](NC)C(=O)O; NMeA = CN[C@@H](C)C(=O)O; Piperidide = C1CCN(*)CC1; Ac5c = NC1(C(=O)O)CCCC1; Aze = O=C(O)[C@@H]1CCN1; Sar = CNCC(=O)O
Property: pIC50; scope: individual compounds
MEASUREMENT_KIND: pIC50

- COMPOUND: "CC[C@H](C)[C@@H]1NC(=O)[C@H](C)N(C)C(=O)C[C@@H](C(=O)N2CCCCC2)N(C)C(=O)[C@H](C(C)C)N(C)C(=O)C2(CCCC2)NC(=O)[C@@H]2CCCN2C(=O)[C@H](CCc2ccc(C(F)(F)F)c(Cl)c2)NC(=O)CN(C)C(=O)[C@H](CC2CCCCC2)N(C)C(=O)[C@@H]2CCN2C(=O)[C@H](CCc2ccccc2)N(C)C1=O [Compound 1559] ([NMeA]I[NMehPhe][Aze][NMeCha][Sar][hPhe(3-Cl-4-CF3)]P[Ac5c][NMeV][NMeD]-Piperidide; lactam N-11)"
  RECORDED_MEASUREMENT: 7.55
- COMPOUND: "CC[C@H](C)[C@@H]1NC(=O)[C@H](CC)N(C)C(=O)C[C@@H](C(=O)N2CCCCC2)N(C)C(=O)[C@H](C(C)C)N(C)C(=O)C2(CCCC2)NC(=O)[C@@H]2CCCN2C(=O)[C@H](CCc2ccc(C(F)(F)F)c(Cl)c2)NC(=O)CN(C)C(=O)[C@H](CC2CCCCC2)N(C)C(=O)[C@@H]2CCN2C(=O)[C@H](C)N(C)C1=O [Compound 1638] ([NMeAbu]I[NMeA][Aze][NMeCha][Sar][hPhe(3-Cl-4-CF3)]P[Ac5c][NMeV][NMeD]-Piperidide; lactam N-11)"
  RECORDED_MEASUREMENT: 8.14

---

- TESTED_TARGET: protein-protein interaction between Kras and SOS1 (biotin-tagged human Kras loaded with GDP, His-tagged human SOS1) (Homo sapiens (Human), UniProt P01116, G12D)
- PROCEDURE_SUMMARY: Protein-protein interaction inhibition between Kras and SOS1 (KrasG12D-SOS PPI) using AlphaScreen;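 also: kras produced in E. coli, Ni-coupled donor beads and streptavidin acceptor beads, excitation 680 nm with emission detected at 520–620 nm via singlet oxygen transfer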
- Type: biochemical
- ASSAY_CONDITIONS: AlphaScreen; biotin-tagged human Kras loaded with GDP, His-tagged human SOS1; read-out: KRAS G12D-SOS PPI IC50
Numbered stars: 1 amine (or outer) side, 2 acyl side, 3 side chain; on linkers, the order of the positions; unused ones are H or OH. Bridge positions count the residues as written; N and C are the ends. Square brackets hold non-standard residues; d marks the D form. Peptide text beside a SMILES is read from it. * marks the point of attachment. hPhe(3-Cl-4-CF3) = N[C@@H](CCc1ccc(C(F)(F)F)c(Cl)c1)C(=O)O; NMePhe(4-Me) = CN[C@@H](Cc1ccc(C)cc1)C(=O)O; NMedβ3hAla = C[C@H](CC(=O)[*:2])N(C)[*:1]; NMeAla(cPent) = CN[C@@H](CC1CCCC1)C(=O)O; Phe(3-I) = N[C@@H](Cc1cccc(I)c1)C(=O)O; NMeD = CN[C@@H](CC(=O)O)C(=O)O; NMeL = CN[C@@H](CC(C)C)C(=O)O; NMeV = CN[C@H](C(=O)O)C(C)C; Pip = O=C(O)[C@@H]1CCCCN1; NMeA = CN[C@@H](C)C(=O)O; NMeAib = CNC(C)(C)C(=O)O; Nle = CCCC[C@H](N)C(=O)O; Piperidide = C1CCN(*)CC1; Ac5c = NC1(C(=O)O)CCCC1; Aze = O=C(O)[C@@H]1CCN1; Sar = CNCC(=O)O
Each entry below carries its reported IC50.

- MOLECULE: "CCCC[C@@H]1NC(=O)[C@H](Cc2cccc(I)c2)NC(=O)CN(C)C(=O)[C@H](CC2CCCC2)N(C)C(=O)[C@@H]2CCN2C(=O)[C@H](C)N(C)C(=O)[C@H]([C@@H](C)CC)NC(=O)[C@@H]2CCCCN2C(=O)C[C@@H](C(=O)N2CCCCC2)N(C)C(=O)[C@H](CC(C)C)NC(=O)C(C)(C)N(C)C1=O [Compound 1424] ([Pip]I[NMeA][Aze][NMeAla(cPent)][Sar][Phe(3-I)][Nle][NMeAib]L[NMeD]-Piperidide; lactam N-11)"
  IC50 / µM: 0.2
- MOLECULE: "CC[C@H](C)[C@@H]1NC(=O)[C@H](CC(C)C)N(C)C(=O)C[C@@H](C)N(C)C(=O)[C@H](C(C)C)N(C)C(=O)C2(CCCC2)NC(=O)[C@@H]2CCCN2C(=O)[C@H](CCc2ccc(C(F)(F)F)c(Cl)c2)NC(=O)CN(C)C(=O)[C@H](Cc2ccc(C)cc2)N(C)C(=O)[C@@H]2CCN2C(=O)[C@H](C)N(C)C1=O [Compound 1809] (cyclo([Ac5c][NMeV][NMedβ3hAla][NMeL]I[NMeA][Aze][NMePhe(4-Me)][Sar][hPhe(3-Cl-4-CF3)]P))"
  IC50 / µM: 0.0014
